Tested on: HCT-15 colon
measurement protocol: NCI-60 one-dose screen, 48 h (100 = growth as untreated, 0 = no growth, -100 = all killed)
experimental parameters: 10 µM unless noted
About 83,000 compounds went through this panel and 20% of them were active in at least one assay; those are over-represented in the sample as a whole.
reported property: growth (%)
Number only, in %; omit the unit.

{"columns": ["compound", "growth [%]"],
 "data": [
  ["Nc1nc(N)c2cc(Sc3ccc(Cl)cc3)ccc2n1", 20.5],
  ["Nc1n[nH]c2ccc([C@@H]3Nc4c(F)cc5[nH]ncc5c4[C@H]4C5CCC(C5)[C@@H]34)cc12 (stereo not given in full)", 19.8],
  ["CCCCCCCCCCCCCCCCS(=O)(=O)Nc1cc(C(=O)NN)cc(C(=O)NN)c1", 50.5],
  ["COc1ccc2[nH]cc(C(c3ccc(Cl)cc3)N3CCCC3)c2c1 (stereo not given)", 89.7],
  ["CC1CCN(Cc2ccc(NC(=O)c3cc4ccc5cccnc5c4[nH]3)cc2)CC1", 22.2],
  ["COC(=O)CNS(=O)(=O)c1ccc2c(c1)Cc1cc(S(=O)(=O)NCC(=O)OC)ccc1-2", 102]
]}

Then this compound:
[in] Quick one: growth for `O=C(OCc1ccc2c(Br)cc(Br)c(O)c2n1)c1cc2ccccc2[nH]1` ?
[out] -66.7
